B1: Advillin, residues 785 to 819; numbered along this chain, O75366 (parent)
chain: LSEQDFVSVFGITRGQFAALPGWKQLQMKKEKGLF

# Variants of: B1
# protocolDetails: abundance fitness (aPCA) (normalised: wild type 0, dead -1); higher = more abundant; growth selection in yeast, the domain comes from the species named
# testParameters: Homo sapiens
testReadout: abundance fitness
// print number alone

May I ask what abundance fitness has been recorded for V9F ?
-0.422

May I ask what abundance fitness has been recorded for S8W ?
-0.439

May I ask what abundance fitness has been recorded for M28A ?
-0.905

May I ask what abundance fitness has been recorded for Q4C ?
-0.846

May I ask what abundance fitness has been recorded for K32E ?
-0.175

May I ask what abundance fitness has been recorded for S8P ?
-0.506

May I ask what abundance fitness has been recorded for Q4F ?
-0.063

May I ask what abundance fitness has been recorded for S2T ?
-0.289

May I ask what abundance fitness has been recorded for E3I ?
-0.175

May I ask what abundance fitness has been recorded for K29S ?
-0.017

May I ask what abundance fitness has been recorded for F6C ?
0.06

May I ask what abundance fitness has been recorded for Q4K ?
0

May I ask what abundance fitness has been recorded for V7W ?
-0.343

May I ask what abundance fitness has been recorded for E31M ?
-0.453

May I ask what abundance fitness has been recorded for L20I ?
-0.902

May I ask what abundance fitness has been recorded for G15N ?
-0.05

May I ask what abundance fitness has been recorded for V9M ?
-0.184

May I ask what abundance fitness has been recorded for F17G ?
-0.37

May I ask what abundance fitness has been recorded for L26P ?
-0.914

May I ask what abundance fitness has been recorded for Q27E ?
0.098

May I ask what abundance fitness has been recorded for L26F ?
-0.185

May I ask what abundance fitness has been recorded for D5G ?
-0.188

May I ask what abundance fitness has been recorded for Q16V ?
-0.422

May I ask what abundance fitness has been recorded for S2C ?
-0.175

May I ask what abundance fitness has been recorded for K29I ?
-0.218

May I ask what abundance fitness has been recorded for Q16F ?
-0.302

May I ask what abundance fitness has been recorded for A18K ?
0.188

May I ask what abundance fitness has been recorded for W23D ?
0.005

May I ask what abundance fitness has been recorded for A18W ?
-0.358

May I ask what abundance fitness has been recorded for K32P ?
-0.132

May I ask what abundance fitness has been recorded for V9H ?
0.018

May I ask what abundance fitness has been recorded for S2P ?
-0.584

May I ask what abundance fitness has been recorded for S8L ?
-0.238

May I ask what abundance fitness has been recorded for F10W ?
-0.274

May I ask what abundance fitness has been recorded for I12K ?
-0.312

May I ask what abundance fitness has been recorded for G22R ?
-0.099

May I ask what abundance fitness has been recorded for G11T ?
-0.547

May I ask what abundance fitness has been recorded for F10E ?
-0.285

May I ask what abundance fitness has been recorded for K24C ?
-0.342

May I ask what abundance fitness has been recorded for V7E ?
0.105

May I ask what abundance fitness has been recorded for L34S ?
0.177

May I ask what abundance fitness has been recorded for Q25T ?
-0.405

May I ask what abundance fitness has been recorded for G33L ?
-0.305

May I ask what abundance fitness has been recorded for F35Q ?
-0.071

May I ask what abundance fitness has been recorded for F10A ?
-0.398

May I ask what abundance fitness has been recorded for L20F ?
-0.832

// provenance: the Human Domainome abundance scans (Beltran et al. 2025)
